conditionSet: in chloroform, 298.15 K
reportedProperty: solubility (mole fraction)
# respond with the number and nothing more

For O=C(O)Cc1c[nH]c2ccccc12 , write its solubility (mole fraction). 3.48e-06

---

conditionSet: in chloroform, 313.15 K
reportedProperty: solubility (mole fraction)
# respond with the number and nothing more

For O=C(O)Cc1c[nH]c2ccccc12 , write its solubility (mole fraction). 4.07e-06

---

conditionSet: in 1,4-dioxane, 293.15 K
reportedProperty: solubility (mole fraction)
# respond with the number and nothing more

For O=C(O)Cc1c[nH]c2ccccc12 , write its solubility (mole fraction). 2.2e-05

---

conditionSet: in n-butanol, 323.15 K
reportedProperty: solubility (mole fraction)
# respond with the number and nothing more

For O=C(O)Cc1c[nH]c2ccccc12 , write its solubility (mole fraction). 4.65e-05
